Every entry's value here was drawn from patent US11242344B2.

- ASSAYED TARGET: VHL co-expressed with Elongins B and C (Homo sapiens (Human), UniProt P40337)
- Sequence (P40337 whole entry, looked up): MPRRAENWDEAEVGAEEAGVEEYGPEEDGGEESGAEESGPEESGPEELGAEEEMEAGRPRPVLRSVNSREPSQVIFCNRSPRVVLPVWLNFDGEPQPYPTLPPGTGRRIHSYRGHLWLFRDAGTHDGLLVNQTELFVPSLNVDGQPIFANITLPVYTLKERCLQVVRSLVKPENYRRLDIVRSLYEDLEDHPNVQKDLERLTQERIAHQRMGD
- Sequence (Q15370 whole entry partner, looked up): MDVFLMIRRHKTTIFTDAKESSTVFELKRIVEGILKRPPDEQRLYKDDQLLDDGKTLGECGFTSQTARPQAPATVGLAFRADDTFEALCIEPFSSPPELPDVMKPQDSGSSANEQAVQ
- Sequence (Q15369 whole entry partner, looked up): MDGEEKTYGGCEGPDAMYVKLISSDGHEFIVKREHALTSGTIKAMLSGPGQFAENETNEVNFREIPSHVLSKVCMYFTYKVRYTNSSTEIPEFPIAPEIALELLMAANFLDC
- EXPERIMENT DESCRIPTION: Surface Plasmon Resonance Assay
- Assay type: binding
- CONDITION SUMMARY: SPR measured VHL affinity; geometric mean where more than one measurement
PARAMETER MEASURED: log10 of Kd (log10 of the value in µM)
Values below are the log10 of the recorded Kd, with µM as the unit.

See these solved cases before continuing.
>>> recorded_measurement("CC(=O)N1CCCCC1C(=O)N1C[C@H](O)CC1C1=NC(=O)[C@](C)(c2ccc(-c3scnc3C)cc2)N1 (single isomer, unassigned) [Example 124.2]")
1.00
>>> recorded_measurement("Cc1noc(C(C(=O)N2C[C@H](O)CC2C2=NC(=O)[C@](C)(c3ccc(-c4scnc4C)cc3)N2)C(C)C)n1 (single isomer, unassigned) [Example 117.3]")
2.34
>>> recorded_measurement("Cc1ncsc1-c1ccc([C@]2(C)NC(C3C[C@@H](O)CN3C(=O)C3N(S(C)(=O)=O)CCC3(C)C)=NC2=O)cc1 (single isomer, unassigned) [Example 125.1]")
1.17
>>> recorded_measurement("Cc1cc(C(C(=O)N2C[C@H](O)CC2C2=NC(=O)[C@](C)(c3ccc(-c4scnc4C)cc3)N2)C(C)C)sn1 (single isomer, unassigned) [Example 119.2]")
2.18
>>> recorded_measurement("Cc1cc(C(C(=O)N2C[C@H](O)C[C@H]2C2=NN(c3ccccc3)C(C)(C)N2)C(C)C)on1 (single isomer, unassigned) [Example 135.2]")
0.82
>>> recorded_measurement("CC(=O)N[C@H](C(=O)N1C[C@H](O)CC1C1=NC(=O)C(C)(c2ccc(Br)cc2)N1)C(C)(C)C (single isomer, unassigned) [Example 101.4]")
1.43
>>> recorded_measurement("Cc1cc(C(C(=O)N2C[C@H](O)CC2C2=NC(=O)C(C)(c3ccc(-c4cccnc4)cc3)N2)C(C)C)on1 (single isomer, unassigned) [Example 105.4]")
0.20
>>> recorded_measurement("CC/C(=C(\\c1ccc(O)cc1)c1ccc(OCCN(C)C(=O)CCCOCCOc2cc(C(C(=O)N3C[C@H](O)CC3C3=NC(=O)[C@](C)(c4ccc(-c5scnc5C)cc4)N3)C(C)C)on2)cc1)c1ccccc1 (single isomer, unassigned) [Example 1003.3]")
1.83

Record summary for Cc1ncsc1-c1ccc([C@]2(C)NC(C3C[C@@H](O)CN3C(=O)[C@@H](NC(=O)C3(C#N)CC3)C(C)(C)C)=NC2=O)cc1 (single isomer, unassigned) [Example 111.1] : reported log10 of Kd = 1.50

Record summary for Cc1cc([C@H](C(=O)N2C[C@H](O)C[C@H]2C2=NOC(C)(c3ccccc3)N2)C(C)C)on1 (single isomer, unassigned) [Example 128.4] : reported log10 of Kd = 0.88

Record summary for Cc1cc(C(C(=O)N2C[C@H](O)CC2C2=NC(=O)C(C)(c3ccc(-c4cccc(=O)n4C)cc3)N2)C(C)C)on1 (single isomer, unassigned) [Example 108.2] : reported log10 of Kd = 0.60

Record summary for Cc1cc(C(C(=O)N2C[C@H](O)CC2C2=NC(=O)C(C)(c3ccc(-c4cccnc4C)cc3)N2)C(C)C)on1 (single isomer, unassigned) [Example 106.4] : reported log10 of Kd = -0.05

Record summary for Cc1cc([C@H](C(=O)N2C[C@H](O)C[C@H]2C2=NOC3(CCc4ccccc43)N2)C(C)C)on1 (single isomer, unassigned) [Example 130.3] : reported log10 of Kd = 0.67

Record summary for CC(=O)N[C@H](C(=O)N1C[C@H](O)CC1C1=NC(=O)C(C)(c2ccc(-c3scnc3C)cc2)N1)C(C)(C)C (single isomer, unassigned) [Example 102.1] : reported log10 of Kd = 0.29

Record summary for Cc1cc([C@@H](C(=O)N2C[C@H](O)C[C@H]2C2=NOC(C)(c3ccc(Br)cc3)N2)C(C)C)on1 (mixture of isomers) : reported log10 of Kd = 1.38

Record summary for Cc1cc(C(C(=O)N2C[C@H](O)CC2C2=NC(=O)[C@](C)(c3ccc(-c4scnc4C)cc3)N2)C(C)C)sn1 (single isomer, unassigned) [Example 119.3] : reported log10 of Kd = 1.24
